Source of measurements: the RNAGym collection of RNA variant scans (doi:10.7554/elife.80360)

B1: CPEB3 Ribozyme (parent)
chain: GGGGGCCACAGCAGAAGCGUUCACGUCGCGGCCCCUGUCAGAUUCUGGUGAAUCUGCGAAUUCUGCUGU

# Variants of: B1
# Protocol Notes: self-cleavage, relative activity (ratio to wild type); higher = more cleavage; co-transcriptional
Property: self-cleavage
Please reply with the value in numeric form only.

Look over these answered cases.
# Biopolymer Sequence, self-cleavage
measured = [
    ("GGGGGCCACAGCAUAAGCGUUCACGUCGCGGCCCCUGUCAGAUUCUGGUGAAUGUGCGAAUUCUGCUGU [G14U C54G]", 0.363),
    ("GGGGGCCACAGCAGAAGCGUUCACGACGCGGCCCAUGUCAGAUUCUGGUGAAUCUGCGAAUUCUGCUGU [U26A C35A]", 0.228),
    ("GGGGGCCACAGCAGAAGCGUUCACGUCGCGGCCCAUGUCAGAUUCUGGUGAAUCUGCGAAUUCUGUUGU [C35A C66U]", 0.259),
    ("GGGGGCCACAGCAGAAGCCUUCACGUCGCGGCCCCUAUCAGAUUCUGGUGAAUCUGCGAAUUCUGCUGU [G19C G37A]", 0.225),
    ("GGGGGCCACAGCAGAAGCGUUCACGUCGCGGCCCCUGCCAGAUUCUAGUGAAUCUGCGAAUUCUGCUGU [U38C G47A]", 0.933),
]

Name the recorded self-cleavage of the variant listed here: GGGGGCCACAGCAGAAGCGUUCACGUCGCGGCCCCUGUCAGAUUCUGGUGAAUCUGAGUAUUCUGCUGU [C57A A59U]
0.46

Return value of self-cleavage for input GGGGGCCACAGCAGAAGCGUUCACGUCGCGGCCCCUGUCAGGUUCUGGUGAAUCUGCGAAUUCUUCUGU [A42G G65U] , no commentary.
0.605

# return recorded self-cleavage for input GGGGGGCACAGCAGAAGCGUUCACGUAGCGGCCCCUGUCAGAUUCUGGUGAAUCUGCGAAUUCUGCUGU [C6G C27A]
0.0381
